- Tested System: CT-L activity of purified rabbit 20S proteasome (Oryctolagus cuniculus, UniProt G1SU71+G1T4Q9)
- Sequence (G1T4Q9 60-263): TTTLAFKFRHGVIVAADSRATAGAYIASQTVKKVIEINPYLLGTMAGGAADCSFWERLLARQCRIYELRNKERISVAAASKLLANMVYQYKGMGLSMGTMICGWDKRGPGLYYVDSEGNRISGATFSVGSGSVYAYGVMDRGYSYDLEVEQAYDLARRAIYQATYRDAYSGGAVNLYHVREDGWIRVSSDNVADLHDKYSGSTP
- Sequence (G1SU71 29-241): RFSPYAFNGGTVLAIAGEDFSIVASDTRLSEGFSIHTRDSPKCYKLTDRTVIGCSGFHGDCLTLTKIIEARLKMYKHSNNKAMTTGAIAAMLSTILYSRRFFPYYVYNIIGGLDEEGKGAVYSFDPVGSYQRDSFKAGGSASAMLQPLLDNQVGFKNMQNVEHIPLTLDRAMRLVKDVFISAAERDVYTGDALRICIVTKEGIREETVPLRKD
- Method: Fluorometric assay of CT-L proteolytic activity of purified 20S proteasome
- Type: biochemical
IC50 overview

                         chemical_structure    result
0  O=C1C(Cl)=C(N(Cc2ccc(C(F)(F)F)cc2)c2ccc(S(=O)(=O)Nc3ccccn3)cc2)C(=O)c2ccccc21  > 100 µM
1  O=C(NS(=O)(=O)c1ccc(NC2=CC(=O)c3ccccc3C2=O)cc1)c1ccccc1  > 100 µM

We next turn to a different molecule, shown below.
**Q:** Entry COc1cc(NS(=O)(=O)c2ccc(NC3=C(Cl)C(=O)c4ccccc4C3=O)cc2)nc(OC)n1 : reported IC50 = ?
**A:** 100 µM
